SYSTEM_TESTED: EGFR Exon 20 INSNPH Ba/F3 (Homo sapiens, UniProt P00533, DUP771-773, cells depend on it)
Sequence (P00533 with tags, fused parts or gaps DUP771-773): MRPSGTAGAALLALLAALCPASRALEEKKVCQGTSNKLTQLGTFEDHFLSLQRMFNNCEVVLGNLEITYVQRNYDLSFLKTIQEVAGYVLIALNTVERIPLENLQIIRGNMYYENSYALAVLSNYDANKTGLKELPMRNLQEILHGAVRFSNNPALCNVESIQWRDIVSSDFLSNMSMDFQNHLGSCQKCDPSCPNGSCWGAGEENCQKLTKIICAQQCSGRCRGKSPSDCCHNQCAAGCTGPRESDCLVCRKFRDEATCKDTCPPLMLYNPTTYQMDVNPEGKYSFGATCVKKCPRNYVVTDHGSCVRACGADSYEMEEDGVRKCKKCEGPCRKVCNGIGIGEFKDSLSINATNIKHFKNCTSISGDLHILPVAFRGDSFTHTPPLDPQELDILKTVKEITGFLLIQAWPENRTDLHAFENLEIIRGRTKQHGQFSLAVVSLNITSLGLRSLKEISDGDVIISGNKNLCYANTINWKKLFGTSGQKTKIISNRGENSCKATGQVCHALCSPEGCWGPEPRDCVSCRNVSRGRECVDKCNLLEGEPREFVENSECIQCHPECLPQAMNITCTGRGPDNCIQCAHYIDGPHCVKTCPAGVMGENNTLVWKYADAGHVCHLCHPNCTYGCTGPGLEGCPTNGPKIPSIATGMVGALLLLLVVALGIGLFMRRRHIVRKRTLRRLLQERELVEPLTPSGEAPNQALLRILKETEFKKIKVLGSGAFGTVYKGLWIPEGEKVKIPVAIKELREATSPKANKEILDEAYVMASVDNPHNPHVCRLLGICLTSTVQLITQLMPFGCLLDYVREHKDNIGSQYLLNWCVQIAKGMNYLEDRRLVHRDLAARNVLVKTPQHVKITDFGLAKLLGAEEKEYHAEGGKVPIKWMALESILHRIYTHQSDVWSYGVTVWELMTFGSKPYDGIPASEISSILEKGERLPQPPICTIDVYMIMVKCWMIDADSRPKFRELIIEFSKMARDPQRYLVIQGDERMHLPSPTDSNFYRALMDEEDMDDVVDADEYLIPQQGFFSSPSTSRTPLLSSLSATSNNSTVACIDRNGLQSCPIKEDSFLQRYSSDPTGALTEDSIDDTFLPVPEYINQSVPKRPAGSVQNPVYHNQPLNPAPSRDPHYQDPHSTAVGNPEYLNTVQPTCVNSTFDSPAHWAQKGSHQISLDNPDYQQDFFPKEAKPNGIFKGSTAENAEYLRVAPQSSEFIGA
EXPERIMENTAL_PROTOCOL: EGFR Exon 20 INSNPH Ba/F3 CellTiter-Glo
Assay type: cell-based
TEST_CONDITIONS: CellTiter-Glo, 72 h, read-out: EGFR Exon 20 INSNPH Ba/F3 CTG IC50
Listing of recorded GI50 by entry.

# example entries with known answers
MOLECULE	MEASURE	MEASUREMENT
C=CC(=O)Nc1cc(-c2c(-c3ccc(C4CCN(C)CC4)cc3)[nH]c3nccc(OC)c23)ccc1C [Example 73]	GI50	≤ 0.1 µM
C=CC(=O)Nc1cc(-c2c(-c3cccc(C(=O)NC4CCCCC4)c3)[nH]c3nccc(Cl)c23)ccc1C [Example 50]	GI50	1 to 10 µM
C=CC(=O)N1CCCc2ccc(-c3c(-c4ccc(OCCN5CCCC5)cc4)[nH]c4nccc(Cl)c34)cc21 [Example 90]	GI50	1 to 10 µM
C=CC(=O)N1CCc2ccc(-c3c(-c4ccc(OCCCN(C)C)cc4)[nH]c4nccc(Cl)c34)cc21 [Example 71]	GI50	0.5 to 1 µM
C=CC(=O)Nc1cc(-c2c(-c3ccc(C4CCN(C)CC4)cc3)[nH]c3ncc(C(=O)OC(C)C)cc23)cc(F)c1C [Example 179]	GI50	0.1 to 0.5 µM
C=CC(=O)Nc1cc(-c2c(-c3cccc(CN4CCN(C)CC4)c3)[nH]c3nccc(Cl)c23)ccc1C [Example 16]	GI50	0.1 to 0.5 µM
C=CC(=O)Nc1cc(-c2c(-c3ccc(N4CCN(C)CC4)nc3)[nH]c3ncc(C(=O)OC(C)C)cc23)cc(F)c1C [Example 174]	GI50	0.1 to 0.5 µM
C=CC(=O)Nc1cc(-c2c(-c3cccc(CN4CCOCC4)c3)[nH]c3ncccc23)ccc1C [Example 82]	GI50	1 to 10 µM
C=CC(=O)Nc1cc(-c2c(-c3cccc(CN4CCN(C(C)=O)CC4)c3)[nH]c3nccc(Cl)c23)ccc1C [Example 22]	GI50	1 to 10 µM
C=CC(=O)Nc1cc(-c2c(-c3ccc(OCCN(C)C)cc3)[nH]c3nccc(Cl)c23)ccc1C [Example 18]	GI50	≤ 0.1 µM

GI50 of C=CC(=O)Nc1cc(-c2c(-c3ccc(N4CCN(C)CC4)cc3)[nH]c3ncc(C(=O)NCc4ccc(CN5CCN(C)CC5)cc4)cc23)ccc1C [Example 122] , assay on EGFR Exon 20 INSNPH Ba/F3 (Homo sapiens, UniProt P00533, DUP771-773, cells depend on it), is 1 to 10 µM

GI50 of C=CC(=O)Nc1cc(-c2c(-c3ccc(N4CCN(C)CC4)cc3)[nH]c3ncc(CC(=O)OC)cc23)ccc1C [Example 195] , assay on EGFR Exon 20 INSNPH Ba/F3 (Homo sapiens, UniProt P00533, DUP771-773, cells depend on it), is 0.1 to 0.5 µM
